Overview of recorded EE (%) for various compounds
Assay: Encapsulation efficiency of RNA (QUANT-IT RIBOGREEN RNA assay)
Type: physicochemical
Details: Table 17-1

Test Smiles	Unit Text	EE (%)
CCCCC/C=C\C/C=C\CCCCCCCCN(CCO)CCCCCCCCCCCCCC	%	94.2
CCCCC/C=C\C/C=C\CCCCCCCCN(CCO)CCCCCC	%	57.2
CCCCC/C=C\C/C=C\CCCCCCCCN(CCO)CCCCCCCCCCCC	%	94.5
CCCCCCCCCCCCN(CCCCO)CCCCCCCCCCCC	%	89.22
CCCCCCCCCCCCN(CCO)CCCCCCCCCCCC	%	88.7

* * *

Each entry below carries its reported Size (nm).
Test: Particle size and polydispersity index of nanoparticle compositions (Zetasizer Nano ZS)
Assay type: physicochemical
Conditions: Table 1; rows without footnote mark (lipid:DOPE:cholesterol:PEG-DMG 40:20:38.5:1.5, Luc mRNA; MC3 standard formulation)

Compound	Size (nm)
CCCCCCCCCCCCN(CCCCCCCCCCCC)CCN(CCCCCCCCC)CC(=O)N1CCN(C(=O)CN(CCCCCCCCCCCC)CCCCCCCCCCCC)CC1	81.3
CCCCCCCCCCCCCCN(CCCCCCCCCCCCCC)CCN(CCCCCCCCCCCCCC)CCN1CCN(CCN(CCCCCCCCCCCCCC)CCCCCCCCCCCCCC)CC1	79.3
CCCCCC=CCC=CCCCCCCCCC(CCCCCCCCC=CCC=CCCCCC)OC(=O)CCCN(C)C (stereo not shown) [MC3, reference compound]	86.2
CCCCCCCCCN(CCCCCCCCC)CCN(CCCCCCCC(=O)OC)CC(=O)N1CCN(C(=O)CN(CCCCCCCCC)CCCCCCCCC)CC1	89.8
CCCCCCCCCCCCN(CCCCCCCCCCCC)CCN(CCCCCCCCC)CC(=O)N1CCN(C(=O)CN(CCCCCCCCC)CCCCCCCCC)CC1	81.4
CCCCCCCCCN(CCCCCCCC(=O)OC)CCN(CCCCCCCCC)CC(=O)N1CCN(C(=O)CN(CCCCCCCCC)CCCCCCCCC)CC1	81.8
CCCCCCCCCCCCN(CCCCCCCCCCCC)CCN(CCCCCCCCCCCC)CCN1CCN(CCN(CCCCCC(=O)OCCCCC)CCCCCC(=O)OCCCCC)CC1	88.7
CCCCCCCCCN(CCCCCCCCC)CCN(CCCCCCCCC)CC(=O)N1CCN(C(=O)CN(CCCCCCCCC)CCCC(=O)OCCCCC)CC1	100.2
CCCCCCCC/C=C\CCCCCCCCN(CCCCCCCC/C=C\CCCCCCCC)CCN(CCCCCCCC/C=C\CCCCCCCC)CCN1CCN(CCN(CCCCCCCCCCCC)CCCCCCCCCCCC)CC1	79.7
CCCCCCCCCN(CCCCCCCCC)CCN(CCCCCCCCC)CC(=O)N1CCN(C(=O)CN(CCCCCCCCC)CCCCCCCC(=O)OC)CC1	94.9
CCCCCCCCCCCCN(CCCCCCCCCCCC)CCN1CCN(CCN(CCCCCC)CCN(CCCCCC)CCCCCC)CC1	82.3
CCCCCCCCCCCCN(CCCCCCCCCCCC)CC(=O)N1CCN(C(=O)CN(CCCCCCCCCCCC)CCN(CCCCCCCCC)CCCCCCCCC)CC1	78.0
CCCCCCCCCN(CCCCCCCCC)CCN(CCCCCCCCC)CCN1CCN(CCN(CCCCCCCCC)CCCCCCCCC)CC1	76.7

* * *

Assay: Lipid clearance: % dose remaining in mouse liver 6 h and 24 h after administration of nanoparticle compositions
Format: in vivo, CD-1 mice
Conditions: Table 7c, 6 hr

Compound	% Dose Remaining 6 hr (%)
CCCCCCCCCN(CCCCCCCCC)CCN(CCCCCCCCC)CC(=O)N1CCN(C(=O)CN(CCCC(=O)OCCCCC)CCCC(=O)OCCCCC)CC1 [Compound 72]	7.06
CCCCCCCCCN(CCCOC(=O)CCCCC)CCC1CCN(C(=O)CN(CCCCCCCCC)CCN(CCCCCCCCC)CCCCCCCCC)CC1 [Compound 61]	1.31
CCCCCCCCCN(CCCCCCC(=O)OCC)CCC1CCN(C(=O)CN(CCCCCCCCC)CCN(CCCCCCCCC)CCCCCCCCC)CC1 [Compound 58]	1.37
CCCCCCCCCN(CCCCCCCCC)CCN(CCCCCCCCC)CC(=O)N1CCN(C(=O)CN(CCCCCCCCC)CCCCC(=O)OCCCC)CC1 [Compound 55]	2.58
CCCCCCCCCN(CCCC(=O)OCCCCC)CCN(CCCCCCCCC)CC(=O)N1CCN(C(=O)CN(CCCCCCCCC)CCCC(=O)OCCCCC)CC1 [Compound 71]	12.39
CCCCCCCCCN(CCCCCC(=O)OCCC)CCC1CCN(C(=O)CN(CCCCCCCCC)CCN(CCCCCCCCC)CCCCCCCCC)CC1 [Compound 59]	6.99

* * *

Assay: Encapsulation efficiency of RNA (QUANT-IT RIBOGREEN RNA assay)
Type: physicochemical
Details: Table 1b
Readout Label: EE (%)

Molecule	Measured
CCCCCCCCCN(CCCC(=O)OCCCCC)CCCC1CCN(C(=O)CCN(CCCCCCCCC)CCN(CCCCCCCCC)CCCCCCCCC)CC1 [Compound 84]	98.48%
CCCCCC=CCC=CCCCCCCCCC(CCCCCCCCC=CCC=CCCCCC)OC(=O)CCCN(C)C (stereo not drawn) [MC3, reference compound]	97.3%
CCCCCCCCCN(CCCCCCCCC)CCN(CCCCCCCCC)CC(=O)N1CCN(C(=O)CN(CCCC(=O)OCCCCC)CCCC(=O)OCCCCC)CC1 [Compound 72]	92.7%

* * *

Recorded PDI for the following compounds
Experiment: Particle size and polydispersity index of nanoparticle compositions (Zetasizer Nano ZS)
Format: physicochemical
Settings: Table 1; rows without footnote mark

Compound	PDI
CCCCCCCCCN(CCCCCCCCC)CCN(CCCCCCCCC)CCN1CCN(CCN(CCCCCCCCC)CCCCCCCCC)CC1 [Compound 18]	0.120
CCCCCCCCCN(CCCCCCCC(=O)OC)CCN(CCCCCCCC(=O)OC)CC(=O)N1CCN(C(=O)CN(CCCCCCCCC)CCCCCCCCC)CC1 [Compound 48]	0.099
CCCCCCCCCCCCN(CCCCCCCCCCCC)CCN(CCCCCCCCCCCC)CC(=O)N1CC2CC1CN2C(=O)CN(CCCCCCCCC)CCCCCCCCC (centres unmarked) [Compound 43]	0.220
CCCCCCCCCN(CCCCCCCCC)CCC(=O)N1CCN(C(=O)CCN(CCCCCCCCC)CCN(CCCCCCCCC)CCCCCCCCC)CC1 [Compound 52]	0.100
CCCCCCCCCCCCN(CCCCCCCCCCCC)CC(=O)N1CCN(C(=O)CN(CCCCCCCCC)CCN(CCCCCCCCC)CCCCCCCCC)CC1 [Compound 8]	0.110
CCCCCCCCCCCCN(CCCCCCCCCCCC)CCN(CCCCCCCCC)CC(=O)N1CCN(C(=O)CN(CCCCCCCCCCCC)CCCCCCCCCCCC)CC1 [Compound 10]	0.130
CCCCCCCCCCCCN(CCN(CCCCCCCCC)CCCCCCCCC)CC(=O)N1CCN(C(=O)CN(CCCCCCCCC)CCCCCCCCC)CC1 [Compound 5]	0.140
CCCCCCCCCCCCCCN(CCCCCCCCCCCCCC)CCN1CCN(CCN(CCCCCCCCC)CCN(CCCCCCCCC)CCCCCCCCC)CC1 [Compound 20]	0.150

* * *

Assay: Encapsulation efficiency of RNA (QUANT-IT RIBOGREEN RNA assay)
Type: physicochemical
Settings: Table 17-1
From the text: For nanoparticle compositions including an RNA, a QUANT-IT™ RIBOGREEN® RNA assay (Invitrogen Corporation Carlsbad, Calif.) can be used to evaluate the encapsulation of an RNA by the nanoparticle composition. […] The fluorescence intensity can be measured using a fluorescence plate reader (Wallac Victor 1420 Multilablel Counter; Perkin Elmer, Waltham, Mass.) at an excitation wavelength of, for example, about 480 nm and an emission wavelength of, for example, about 520 nm. […]
EE (%) values by entry

Compound	Unit Text	EE (%)
CCCCCCCCCN(CCO)CCCCCCCCC [Compound 17-10, 2-(Dinonylamino)ethan-1-ol]	%	30.3
CCCCCCCC/C=C\CCCCCCCCN(CCO)CCCCCCCC/C=C\CCCCCCCC [Compound 17-8]	%	96.9
CCCCCC=CCC=CCCCCCCCCC(CCCCCCCCC=CCC=CCCCCC)OC(=O)CCCN(C)C (stereo not shown) [MC3, reference compound]	%	98.0
CCCCC/C=C\C/C=C\CCCCCCCCN(CCO)CCCCCCCCCCCCCCCCCC [Compound 17-6]	%	97.3

* * *

Assay: Particle size and polydispersity index of nanoparticle compositions (Zetasizer Nano ZS)
Format: physicochemical
Details: Table 20-1; rows without footnote mark

Test Smiles	PDI
CCCCCCCCCCCCN(CCCCCCCCCCCC)CCN(CCO)CCCCCCCC(=O)OC(CCCCCCCC)CCCCCCCC	0.130
CCCCCCCCCCCCN(CCCO)CCN(CCCCCCCCCCCC)CCCCCCCCCCCC	0.238
CCCCCCCCCCCCN(CCCCCCCCCCCC)CCNCCO	0.145
CCCCCCCCCCCCN(CCO)CCN(CCCCCCCCCCCC)CCCCCCCCCCCC	0.159
CCCCCCCCCCCCN(CCCCCCCCCCCC)CCN(CCO)CCCCCCCC(=O)OCCCCCCCCC	0.141
CCCCCCCCCCCCCCN(CCCCCCCCCCCCCC)CCN(CCCO)CCCCCCCCCCCC	0.118
CCCCCCCCCCCCN(CCO)CCN(CCCCCCCC(=O)OCCCCCCCCC)CCCCCCCC(=O)OCCCCCCCCC	0.130
CCCCCCCCCCCCN(CCCCCCCCCCCC)CCN(CCO)CCCCCCCCC	0.092
CCCCCCCCCCCCCCN(CCO)CCN(CCCCCCCCCCCCCC)CCCCCCCCCCCCCC	0.217
CCCCCCCCCCCCCCN(CCO)CCN(CCCCCCCCCCCC)CCCCCCCCCCCC	0.038
CCCCCCCCCCCCN(CCO)CCN(CCCCCCCCC)CCCCCCCCC	0.150
CCCCCCCCCCCCN(CCO)CCN(CCCCCC(=O)OCCCCC)CCCCCC(=O)OCCCCC	0.160
CCCCC/C=C\C/C=C\CCCCCCCCN(CCCCCCCC/C=C\C/C=C\CCCCC)CCN(CCO)CCCCCCCCCCCC	0.057
CCCCCCCCCCCCN(CCO)CCN(CCCCCCCCCCCC)CCCCCC(=O)OCCCCCCC	0.170
CCCCCCCCCCCCN(CCCCO)CCN(CCCCCCCCCCCC)CCCCCCCCCCCC	0.146
CCCCCCCOC(=O)CCCCCN(CCO)CCN(CCCCCC(=O)OCCCCCCC)CCCCCC(=O)OCCCCCCC	0.210

The values you see were collected from patent US10195156B2.
